Provenance of the data: the RNAGym collection of RNA variant scans (doi:10.1073/pnas.2313332121)

Items are presented alongside their recorded polymerase ribozyme fitness (log ratio).
B1: TPR 5TU (parent)
chain: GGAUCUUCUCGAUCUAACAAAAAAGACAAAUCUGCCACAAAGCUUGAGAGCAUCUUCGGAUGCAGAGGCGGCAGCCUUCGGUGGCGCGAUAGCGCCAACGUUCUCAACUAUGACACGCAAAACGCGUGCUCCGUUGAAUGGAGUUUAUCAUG

variants of: B1; assay: polymerase ribozyme fitness, log enrichment relative to wild type (log ratio); higher = more active; in vitro selection for triplet polymerase activity
This sample holds only a part of the variants without activity.
outcome-measure: polymerase ribozyme fitness (log ratio)

>  <variant-code>
C32U C85A C99G G133C U139G

>  <outcome-measure>
polymerase ribozyme fitness (log ratio)

>  <result>
≤ -4.2

$$$$
>  <variant-code>
A137U U148G

>  <outcome-measure>
polymerase ribozyme fitness (log ratio)

>  <result>
≤ -4.2

$$$$
>  <variant-code>
A40C G100U U102G U135A

>  <outcome-measure>
polymerase ribozyme fitness (log ratio)

>  <result>
≤ -4.2

$$$$
>  <variant-code>
A28C C36U A39U U55A A66U C79U A91U C93A

>  <outcome-measure>
polymerase ribozyme fitness (log ratio)

>  <result>
≤ -4.2

$$$$
>  <variant-code>
G83A A91C A142G

>  <outcome-measure>
polymerase ribozyme fitness (log ratio)

>  <result>
≤ -4.2

$$$$
>  <variant-code>
A60C C76A G92U C95A U145G C149G

>  <outcome-measure>
polymerase ribozyme fitness (log ratio)

>  <result>
≤ -4.2

$$$$
>  <variant-code>
A19C G83U C87U

>  <outcome-measure>
polymerase ribozyme fitness (log ratio)

>  <result>
-0.445

$$$$
>  <variant-code>
C96U A121G

>  <outcome-measure>
polymerase ribozyme fitness (log ratio)

>  <result>
0.324

$$$$
>  <variant-code>
C76U

>  <outcome-measure>
polymerase ribozyme fitness (log ratio)

>  <result>
0.0494

$$$$
>  <variant-code>
G59A C76G C93G

>  <outcome-measure>
polymerase ribozyme fitness (log ratio)

>  <result>
≤ -4.2

$$$$
>  <variant-code>
C93A G140A

>  <outcome-measure>
polymerase ribozyme fitness (log ratio)

>  <result>
-4.11

$$$$
>  <variant-code>
G59U C93A G133A A138U G141A

>  <outcome-measure>
polymerase ribozyme fitness (log ratio)

>  <result>
≤ -4.2

$$$$
>  <variant-code>
C51U A52U G74C A113C C131A

>  <outcome-measure>
polymerase ribozyme fitness (log ratio)

>  <result>
≤ -4.2

$$$$
>  <variant-code>
A29G G50A G80U A91C U134A U146C

>  <outcome-measure>
polymerase ribozyme fitness (log ratio)

>  <result>
≤ -4.2

$$$$
>  <variant-code>
A12G U55G

>  <outcome-measure>
polymerase ribozyme fitness (log ratio)

>  <result>
-2

$$$$
